target: human GPR120 (Homo sapiens (Human)); assay: GPR120 pERK AlphaScreen SureFire Assay (human GPR120 pERK assay); settings: CHO cells stably transfected with short form of human GPR120
Provide the reported log10 EC50 of each item.
In our notation, the value equals log10 of EC50 in nM.

Respectfully, I request log10 EC50 for each entry included below.
1. O=C(O)[C@@H]1C[C@H]1COc1ccc(-c2cc(C(F)(F)F)ccc2Cl)cc1 (racemic)
2. O=C(O)[C@@H]1C[C@H]1COc1ccc(-c2cc(F)cc(Oc3ccccc3)c2)cc1 (racemic)
3. CC(C)Oc1ccc(F)c(-c2ccc(CC[C@@H]3C[C@@H]3C(=O)O)cc2)c1 (single isomer, unassigned)
4. O=C(O)[C@H]1CC1COc1ccc(-c2cc(Oc3cccc(F)c3)ccc2F)cc1F (stereo partly shown)
5. CCSc1cccc(-c2ccc(CC[C@@H]3C[C@H]3C(=O)O)cc2)c1 (racemic)
6. CC(C)Oc1cc(Cl)cc(-c2ccc(OC[C@H]3C[C@@H]3C(=O)O)c(F)c2)c1 (racemic) [Example 12]
7. COc1ccc(OC(F)(F)F)cc1-c1ccc(OC[C@@H]2C[C@H]2C(=O)O)cc1 (racemic)

// result
1: 3.10; 2: 2.82; 3: 2.30; 4: 2.30; 5: 3.51; 6: 2.49; 7: 3.16

====

biological target: UniProtKB Q5NUL3; assay: GPR120 pERK AlphaScreen SureFire Assay (human GPR120 pERK assay); conditions: CHO cells stably transfected with short form of human GPR120
Group membership follows EC50 per the scheme low = under 300 nM, middle = from 300 nM up to 1000 nM, high = 1000 nM and over

Solved entries:
// query The entry to classify is Cc1nc(-c2ccccc2)c(-c2ccc(CC[C@@H]3C[C@H]3C(=O)O)cc2)s1 (single isomer, unassigned) [Example 27] ; which class holds it?
// result high

// query The entry to classify is CC(C)Oc1ccc(F)c(-c2ccc(CC[C@]3(F)C[C@@H]3C(=O)O)cc2)c1 (racemic) [Example 40] ; which class holds it?
// result high

// query The entry to classify is COc1cc(OC(C)C)cc(-c2ccc(OC[C@@H]3C[C@H]3C(=O)O)cc2)c1 (racemic) [Example 117] ; which class holds it?
// result high

// query The entry to classify is O=C(O)[C@@H]1C[C@H]1COc1ccc(-c2cc(Cl)cc(OC(F)(F)F)c2)cc1 (racemic) [Example 48] ; which class holds it?
// result middle

// query The entry to classify is O=C(O)[C@H]1C[C@@H]1COc1ccc(-c2cc(Oc3ccccc3)ccc2F)cc1F (single isomer, unassigned) [Example 11] ; which class holds it?
// result low

// query The entry to classify is O=C(O)[C@@H]1C[C@H]1COc1ccc(-c2cnn(Cc3ccccc3)c2)cc1 (racemic) [Example 83] ; which class holds it?
// result high

Further cases:
// query The entry to classify is CC(C)Oc1cc(F)c(F)c(-c2ccc(OC[C@@H]3C[C@H]3C(=O)O)c(F)c2)c1 (single isomer, unassigned) [Example 66] ; which class holds it?
// result middle

// query The entry to classify is CC(C)Oc1ccc(F)c(-c2ccc(C[C@H]3C[C@@H]3CC(=O)O)cc2)c1 (racemic) [Example 33] ; which class holds it?
// result low

// query The entry to classify is CC(C)Oc1ccc(F)c(-c2ccc(OC[C@@H]3C[C@H]3C(=O)O)c(Cl)c2)c1 (racemic) [Example 45] ; which class holds it?
// result low

// query The entry to classify is CC(C)Oc1ccc(F)c(-c2ccc(CC[C@@H]3C[C@H]3C(=O)O)cc2)c1 (single isomer, unassigned) [Example 31] ; which class holds it?
// result middle

// query The entry to classify is O=C(O)[C@@H]1C[C@H]1COc1ccc(-c2cc(Oc3cccc(F)c3)cnc2Cl)cc1 (racemic) [Example 111] ; which class holds it?
// result low

// query The entry to classify is CC(C)Oc1ccc(F)c(-c2ccc(OC[C@@H]3C[C@H]3C(=O)O)cc2)c1F (relative stereo) [Example 127] ; which class holds it?
// result middle

// query The entry to classify is COCc1cc(OC(C)C)cc(-c2ccc(OC[C@@H]3C[C@H]3C(=O)O)cc2)c1 (racemic) [Example 86] ; which class holds it?
// result high

====

Target: human GPR120 (Homo sapiens (Human), UniProt Q5NUL3)
Sequence (Q5NUL3 whole entry): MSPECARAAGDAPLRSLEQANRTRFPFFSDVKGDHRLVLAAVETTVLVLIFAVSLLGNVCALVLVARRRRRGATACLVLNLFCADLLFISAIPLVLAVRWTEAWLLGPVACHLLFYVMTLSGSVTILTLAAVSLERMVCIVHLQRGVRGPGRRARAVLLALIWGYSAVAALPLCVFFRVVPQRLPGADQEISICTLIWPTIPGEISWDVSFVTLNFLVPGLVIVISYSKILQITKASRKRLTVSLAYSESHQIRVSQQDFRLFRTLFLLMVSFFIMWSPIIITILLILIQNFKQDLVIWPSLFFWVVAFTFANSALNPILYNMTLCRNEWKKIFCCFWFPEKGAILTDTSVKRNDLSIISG
Assay: GPR120 pERK AlphaScreen SureFire Assay (human GPR120 pERK assay)
Conditions: CHO cells stably transfected with short form of human GPR120
Procedure: GPR120 activity was monitored by measuring phosphorylation of ERK (pERK), since G protein receptors are known to activate the ERK signaling cascade either directly and/or through recruitment of arrestin that serves as a scaffold for downstream signaling events. […] The media was then dumped and cells lysed with 20 μL of 1× Lysis buffer from the AlphaScreen SureFire Phospho-ERK 1/2 Kit (Perkin Elmer Cat. #6760617M). […] After correcting for background, EC50 values were determined. […]
Provide the reported EC50 of each item.
One number for each entry, in nM.

Record excerpt, results attached:
Input O=C(O)[C@@H]1C[C@H]1CCc1ccc(-c2cccc(-n3cccn3)c2)cc1 (racemic) . Output EC50: 700

Input CC(C)Oc1ccc(F)c(-c2ccc(OC[C@@H]3C[C@H]3C(=O)O)c(CC=O)c2)c1 (racemic) . Output EC50: 930

Input CC(C)Oc1cccc(-c2ccc(OC[C@@H]3C[C@H]3C(=O)O)cc2)c1 (racemic) . Output EC50: 1380

Lab note: next compound to report on.
Input CC(C)Oc1cc(Cl)cc(-c2ccc(OC[C@H]3C[C@@H]3C(=O)O)c(F)c2)c1 (single isomer, unassigned) [Example 14] . Output EC50: 830
